Data origin, for the record: patent US20240342186A1

biological target: cGAS (Homo sapiens (Human), UniProt Q8N884); assay: Human cGAS enzyme assay (hcGAS IC50, in vitro), cGAMP formation by RapidFire MS; format: biochemical; settings: biochemical (in vitro) cGAS inhibition
Sequence (Q8N884 whole entry): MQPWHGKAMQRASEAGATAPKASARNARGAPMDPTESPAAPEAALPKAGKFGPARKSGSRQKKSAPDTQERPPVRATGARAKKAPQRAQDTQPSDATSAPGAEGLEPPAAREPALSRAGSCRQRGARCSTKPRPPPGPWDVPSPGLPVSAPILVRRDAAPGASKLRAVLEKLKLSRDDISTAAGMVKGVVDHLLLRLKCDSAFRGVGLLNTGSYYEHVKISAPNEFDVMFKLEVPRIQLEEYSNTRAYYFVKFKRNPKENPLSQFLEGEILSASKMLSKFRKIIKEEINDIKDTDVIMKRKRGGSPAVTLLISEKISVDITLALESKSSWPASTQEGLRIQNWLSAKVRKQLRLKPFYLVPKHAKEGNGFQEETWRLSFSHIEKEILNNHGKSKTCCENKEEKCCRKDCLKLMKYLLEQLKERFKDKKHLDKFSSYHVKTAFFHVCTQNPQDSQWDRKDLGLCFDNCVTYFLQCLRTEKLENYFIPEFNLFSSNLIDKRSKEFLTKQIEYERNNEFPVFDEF
We label by threshold. Values of IC50 strictly beneath 5 nM are rule met. Values of 5 nM and up are rule not met.

Sample answers from the record:
MOLECULAR STRING: C[C@@H]1N(c2cc(-c3cccc(C(N)=O)c3)cnc2O[C@H]2C[C@@H](C(=O)O)N(c3nc(C(F)(F)F)nc4c3oc3ccccc34)C2)CCOC12COC2
CLASS ASSIGNMENT: rule not met
//
MOLECULAR STRING: C[C@@H]1N(c2cc(Cl)cnc2O[C@H]2C[C@@H](C(=O)O)N(c3nc(C(F)F)nc4c3oc3ccccc34)C2)CCCC12COC2
CLASS ASSIGNMENT: rule met
//
MOLECULAR STRING: C#Cc1cnc(O[C@H]2C[C@@H](C(=O)O)N(c3nc(CCl)nc4c3oc3ccccc34)C2)c(N2CCOC3(COC3)[C@@H]2C)c1
CLASS ASSIGNMENT: rule met
//
MOLECULAR STRING: CNc1cc(-c2cnc(O[C@H]3C[C@@H](C(=O)O)N(c4nc(C(F)(F)F)nc5c4oc4ccccc45)C3)c(N3CCOC[C@@H]3C)c2)ccn1
CLASS ASSIGNMENT: rule not met

Here is another compound to look at.
Query: # TODO verify IC50 < 5 nM strictly for this compound: C[C@@H]1N(c2cc(Cl)cnc2O[C@H]2C[C@@H](C(=O)O)N(c3nc(C(F)(F)F)nc4c3oc3ccccc34)C2)CCOC12COC2
Response: rule met

###

Below: a set of entries, each annotated with reported pIC50.
target: cGAS (Homo sapiens (Human), UniProt Q8N884); assay: Human cGAS enzyme assay (hcGAS IC50, in vitro), cGAMP formation by RapidFire MS; type: biochemical; details: biochemical (in vitro), human cGAS, 45 bp dsDNA, GTP/ATP
Recall that pIC50 is obtained by taking minus log10 of the concentration measured in molar.

MOLECULAR STRING: C[C@@H]1N(c2cc(Br)cnc2O[C@H]2C[C@@H](C(=O)O)N(c3nc(C(F)(F)F)nc4c3oc3ccccc34)C2)CCOC12COC2
ASSAY SYSTEM: cGAS (Homo sapiens (Human), UniProt Q8N884)
RESULT TYPE: pIC50
RESULT: 8.30

Now consider a different compound.
Query: API: value(readout= pIC50, system= cGAS (Homo sapiens (Human), UniProt Q8N884), query= C#Cc1cnc(O[C@H]2C[C@@H](C(=O)OC)N(c3nc(C(F)(F)F)nc4c3oc3ccccc34)C2)c(N2CCOC3(COC3)[C@@H]2C)c1 )
Response: 5.02

###

target: cGAS (Homo sapiens (Human)); test: Human cGAS enzyme assay (hcGAS IC50, in vitro), cGAMP formation by RapidFire MS; type: biochemical; settings: biochemical (in vitro) cGAS inhibition;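 also: enzyme activated by 45 bp dsDNA with GTP and ATP (30 µM each), 60 min compound pre-incubation then 90 min reaction, cGAMP relative to cyclic-di-GMP internal standard, 8-point dilutions up to 10 µM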
IC50 reference
Provide only the numeric value, understood in nM.

Solved entries:
COMPOUND: O=C(O)[C@@H]1C[C@H](Oc2ncc(Cl)cc2N2CCc3nocc3C2)CN1c1nc(C(F)F)nc2c1oc1ccccc12 [Example 1.08]
IC50, nM: 4
//
COMPOUND: C[C@@H]1N(c2cc(-c3cccc(CN)c3)cnc2O[C@H]2C[C@@H](C(=O)O)N(c3nc(C(F)F)nc4c3oc3ccccc34)C2)CCOC12COC2 [Example 3.19]
IC50, nM: 8

Query: Param item = CCn1cc(-c2cnc(O[C@H]3C[C@@H](C(=O)O)N(c4nc(C(F)(F)F)nc5c4oc4ccccc45)C3)c(N3CCOC[C@@H]3C)c2)cn1 [Example 3.07] ; retrieve measured IC50.
Response: 17
